- Target entity: angiotensin I-converting enzyme (Oryctolagus cuniculus)
- Sequence (P12822 34-1310): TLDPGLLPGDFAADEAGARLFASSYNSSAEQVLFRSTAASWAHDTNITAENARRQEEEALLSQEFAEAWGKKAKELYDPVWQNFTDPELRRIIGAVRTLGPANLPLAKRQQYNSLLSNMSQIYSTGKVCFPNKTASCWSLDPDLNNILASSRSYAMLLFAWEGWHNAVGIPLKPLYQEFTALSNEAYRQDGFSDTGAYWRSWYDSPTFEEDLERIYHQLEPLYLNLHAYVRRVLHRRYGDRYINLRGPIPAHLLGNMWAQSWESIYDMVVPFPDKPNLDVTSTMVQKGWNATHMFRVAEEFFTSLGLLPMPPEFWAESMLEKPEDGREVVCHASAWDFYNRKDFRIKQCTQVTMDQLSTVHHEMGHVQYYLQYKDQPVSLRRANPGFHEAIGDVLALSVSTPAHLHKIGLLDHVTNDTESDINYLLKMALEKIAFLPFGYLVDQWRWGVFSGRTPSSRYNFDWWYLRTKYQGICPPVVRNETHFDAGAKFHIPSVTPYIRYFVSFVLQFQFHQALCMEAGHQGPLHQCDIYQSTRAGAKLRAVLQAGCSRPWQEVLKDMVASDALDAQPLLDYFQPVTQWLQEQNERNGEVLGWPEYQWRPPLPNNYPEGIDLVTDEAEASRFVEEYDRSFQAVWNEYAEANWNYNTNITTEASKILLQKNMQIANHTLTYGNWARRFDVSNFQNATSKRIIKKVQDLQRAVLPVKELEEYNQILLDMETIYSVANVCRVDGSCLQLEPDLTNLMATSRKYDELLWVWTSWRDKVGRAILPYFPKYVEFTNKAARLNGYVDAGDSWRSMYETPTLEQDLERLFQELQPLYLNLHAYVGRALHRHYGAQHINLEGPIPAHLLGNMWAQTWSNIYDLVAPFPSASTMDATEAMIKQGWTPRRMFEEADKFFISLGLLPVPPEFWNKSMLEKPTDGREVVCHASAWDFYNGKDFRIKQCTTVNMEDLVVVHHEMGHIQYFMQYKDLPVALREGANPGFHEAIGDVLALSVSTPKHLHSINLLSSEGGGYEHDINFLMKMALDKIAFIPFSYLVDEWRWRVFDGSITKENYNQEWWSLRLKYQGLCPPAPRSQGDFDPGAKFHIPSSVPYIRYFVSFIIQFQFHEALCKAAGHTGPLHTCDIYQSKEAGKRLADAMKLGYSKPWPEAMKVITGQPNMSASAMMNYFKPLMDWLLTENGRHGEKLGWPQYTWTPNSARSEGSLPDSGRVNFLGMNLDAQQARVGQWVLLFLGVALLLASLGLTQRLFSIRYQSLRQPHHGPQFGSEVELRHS
Attribute measured: IC50 (µM)

# Compound, Attribute measured, Experimental result
data = [
    ("O=C(O)[C@@H]1CSC(c2ccccc2)N1C(=O)CS (stereo partly drawn) [Compound 12]", "IC50", 13),
    ("Cc1ccc(C2SC[C@@H](C(=O)O)N2C(=O)[C@H](C)CS)cc1 (stereo partly drawn) [Compound 22]", "IC50", 0.54),
    ("O=C(O)[C@@H]1CSC(c2ccccc2)N1C(=O)CCS (stereo partly drawn) [Compound 16]", "IC50", 0.45),
    ("C[C@H](CS)C(=O)N1C(c2ccccc2)SC[C@H]1C(=O)O (stereo partly drawn) [Compound 18]", "IC50", 0.06),
    ("C[C@H](CS)C(=O)N1C(c2cccc3ccccc23)SC[C@H]1C(=O)O (stereo partly drawn) [Compound 83]", "IC50", 1.3),
    ("C[C@H](CS)C(=O)N1C(c2ccncc2)SC[C@H]1C(=O)O (stereo partly drawn) [Compound 95]", "IC50", 0.11),
    ("Cc1ccc(C2SC[C@@H](C(=O)O)N2C(=O)[C@H](C)CS)o1 (stereo partly drawn) [Compound 87]", "IC50", 0.73),
]

[A] C[C@H](CS)C(=O)N1C(Cc2ccccc2)SC[C@H]1C(=O)O (single isomer, unassigned) [Compound 10a]
[B] COc1ccc(C2SC[C@@H](C(=O)O)N2C(=O)CCS)c(O)c1 (stereo partly drawn) [Compound 75]
Given the two records A and B , choose the one whose IC50 value is lower. Please identify the chosen entry by its label.
B
